Provide the reported Kd of each item.
target: DRA1*0101/DRB5*0101 (Homo sapiens, UniProt P01903+Q30154); construct: made in house; assay: biochemical; assay type: binding
Where no end group is shown, it is not given here.
Entry rule: numbers only, all in nM.

Query: Tell me the measured Kd of LPFHNVHPL [PF-147] , please.
Response: 3700

Query: Tell me the measured Kd of IAPWYAFAL [PF-154] , please.
Response: 1700

Query: Tell me the measured Kd of LPFQNVHPV [PF-150] , please.
Response: 1200

Query: Tell me the measured Kd of YVKQNTLKL [PF-152] , please.
Response: 405

Query: Tell me the measured Kd of YILLKKILSSRFNQM [hypothetical protein 239–253, reference compound] , please.
Response: 17

Query: Tell me the measured Kd of ETIVLLRAF [PF-113] , please.
Response: 780

Query: Tell me the measured Kd of YKYVKQNTLKLAT [HA306–318, reference compound] , please.
Response: 12

====

Provide the reported Kd of each item.
target: DRA1*0101/DRB1*0401 (Homo sapiens, UniProt P01903+P01911, A100K/A169T/F76Y/I96L/K127E/L162R/M171V/N62H/P40V/Q125Y/R42H/S133A/S149N/S66Y/V115G/V209L/W38E); construct: made in house; experiment: biochemical; type: binding
Where no end group is shown, it is not given here.

Query: Tell me the measured Kd of LMNELGVPF [PF-141] , please.
Response: > 5 µM

Query: Tell me the measured Kd of IMLKANFSV [PF-103] , please.
Response: 1.39 µM

Query: Tell me the measured Kd of ETIVLLRAF [PF-113] , please.
Response: > 5 µM

Query: Tell me the measured Kd of YKYVKQNTLKLAT [HA306–318, reference compound] , please.
Response: 0.015 µM

Query: Tell me the measured Kd of LPFHNVHPL [PF-147] , please.
Response: > 5 µM

Query: Tell me the measured Kd of IAPWYAFAL [PF-154] , please.
Response: > 5 µM

Query: Tell me the measured Kd of LPFQNVHPV [PF-150] , please.
Response: > 5 µM

Query: Tell me the measured Kd of YVKQNTLKL [PF-152] , please.
Response: 0.226 µM

Query: Tell me the measured Kd of LVSLGAISF [PF-148] , please.
Response: > 5 µM

====

molecular target: HLA-A3 (Homo sapiens, UniProt P04439); experiment: biochemical
Where no end group is shown, it is not given here.
QUANTITY_MEASURED: Kd
Answer with the number, then the unit.

Query: Lab request: please report Kd under test system HLA-A3 (Homo sapiens, UniProt P04439) for TIHDRIPHR [PF-116]
Response: 62 nM

====

molecular target: DRA1*0101/DRB3*0301 (Homo sapiens, UniProt P01903+P79483, A169T/A212P/D57E/G115V/L67V/Q178H/R103Q/R40L/Y55F); assay: biochemical; assay type: binding
Sequence (P01903 26-254 limits assumed): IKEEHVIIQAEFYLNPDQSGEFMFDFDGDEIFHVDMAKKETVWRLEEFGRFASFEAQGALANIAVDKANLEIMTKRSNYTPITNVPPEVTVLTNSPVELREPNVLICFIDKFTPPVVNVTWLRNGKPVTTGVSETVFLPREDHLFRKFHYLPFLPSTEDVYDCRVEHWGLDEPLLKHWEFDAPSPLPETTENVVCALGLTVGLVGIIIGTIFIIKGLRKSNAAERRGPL
Sequence (P79483 30-266 R40L/Y55F/D57E/L67V/R103Q/G115V/A169T/Q178H/A212P limits assumed): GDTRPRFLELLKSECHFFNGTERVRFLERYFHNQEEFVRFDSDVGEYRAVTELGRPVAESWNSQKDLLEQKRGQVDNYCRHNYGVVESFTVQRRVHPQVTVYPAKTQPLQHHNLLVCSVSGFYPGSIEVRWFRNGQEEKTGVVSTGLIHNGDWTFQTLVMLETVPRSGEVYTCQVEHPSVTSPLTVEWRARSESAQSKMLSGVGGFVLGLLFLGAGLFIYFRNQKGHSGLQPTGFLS
Where no end group is shown, it is not given here.
QUANTITY_MEASURED: pKd
Recall that pKd is obtained by taking minus log10 of the concentration measured in molar.

Query: Tell me the measured pKd of LMNELGVPF [PF-141] , please.
Response: 5.40

Query: Tell me the measured pKd of IMLKANFSV [PF-103] , please.
Response: 7.74

Query: Tell me the measured pKd of YVKQNTLKL [PF-152] , please.
Response: 6.45

Query: Tell me the measured pKd of YKYVKQNTLKLAT [HA306–318, reference compound] , please.
Response: 8.52
